tested on: Serum osteocalcin; experiment: Serum osteocalcin suppression, 28-day repeat dose mouse model; assay type: in vivo, mice; settings: 28-day repeat dose model; the 11th table
Value kind: Serum osteocalcin (OC) EAUC50 (µg·h/mL)
Provide the reading as a plain figure in µg·h/mL.

So what does the record say about Serum osteocalcin (OC) EAUC50 for C[C@]12C=CC(=O)C=C1CC[C@@H]1[C@@H]2[C@@H](O)C[C@@]2(C)[C@H]1CC[C@]2(O)C(=O)CO ? 0.56
